// provenance: patent US20160103122A1

- System: tumor cells of lung cancer (bronchial carcinoma) tissue samples
- measurementDescription: Chemosensitivity test (IC50 determination) by colony formation in tumor digests ex vivo
- Type: cell-based, human
- reportedConditions: tumor sample ID 220, SCLC/St. IV; 72 hours, colonies of epithelial tumor cells; read-out: IC50
- From the text: Parts of freshly (under general anesthesia of the patient) taken (here biopsied) lung cancer (bronchial carcinoma) tissue were transported to the laboratory and processed immediately for IC50 determination. The transport to the laboratory should take place in chilled culture medium. […]
resultType: IC50 (nM)

compound="N.N.[Cl][Pt][Cl] [cisplatin]" endpointvalue=2600

====

- Test system: tumor cells of lung cancer (bronchial carcinoma) tissue samples
- measurementDescription: Chemosensitivity test (IC50 determination) by colony formation in tumor digests ex vivo
- Assay type: cell-based, human
- reportedConditions: tumor sample ID 272, SCLC/St. IV; 72 hours; read-out: IC50
- From the text: Parts of freshly (under general anesthesia of the patient) taken (here biopsied) lung cancer (bronchial carcinoma) tissue were transported to the laboratory and processed immediately for IC50 determination. The transport to the laboratory should take place in chilled culture medium. […]
pIC50: −log10 of the molar value.
resultType: pIC50

compound="N.N.[Cl][Pt][Cl] [cisplatin]" endpointvalue=4.68

====

- Tested on: tumor cells of lung cancer (bronchial carcinoma) tissue samples
- measurementDescription: Chemosensitivity test (IC50 determination) by colony formation in tumor digests ex vivo
- Assay type: cell-based, human
- reportedConditions: tumor sample ID 282, NSCLC/St. IV; 72 hours; read-out: IC50
resultType: IC50 (µM)

compound="N.N.[Cl][Pt][Cl] [cisplatin]" resulttype=IC50 endpointvalue=14.8

====

- System: tumor cells of lung cancer (bronchial carcinoma) tissue samples
- measurementDescription: Chemosensitivity test (IC50 determination) by colony formation in tumor digests ex vivo
- Format: cell-based, human
- reportedConditions: tumor sample ID 221, NSCLC/St. IV; 72 hours; read-out: IC50
resultType: IC50 (µM)

molecule="N.N.[Cl][Pt][Cl] [cisplatin]" resulttype=IC50 endpointvalue=7.77
